Taken from the supplement of paper PMC6555819.

- Tested on: PPARg DBDmut:RXRa IVT, anti-PPARg (DBD mutation: PPARg1 K132A/R137A, NR concentration 270 nM, RXRa partner concentration 90 nM)
- procedure_text: PBM binding z-score (relative to random genomic background probes); higher = stronger binding; sequences stand for … in GC…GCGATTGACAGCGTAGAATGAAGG
Provide the reported PBM binding z-score of each item.
Numbers only.

{"columns": ["item_sequence", "result_value"],
 "data": [
  ["AGAATGAGGTTAAGATCAGGTAAACAGAATACAT", 1.7]
]}

Hello, I would appreciate it if you could give PBM binding z-score for each entry below.
1. TATCGGAGGACACGAAGGTCAGAGCTTTCCAGAG
2. GCTAGAAGGCCATTTGGGTCACTCAATGACGGGC
3. TCATATATGTAATACAGGTGAAAGTCGGCATCTA
4. ATCTCTAGGTAATACTCAGTTCAGTGAAGAACGC
5. ACTAGTTGGTCAGTTGAGGTCACACACAATTCGG

Ans:
[-0.485, -0.158, 1.39, 1.44, 1.37]

* * *

- System: PPARg DBDmut:RXRa IVT, anti-PPARg (DBD mutation: PPARg1 K132A/R137A, NR concentration 270 nM, RXRa partner concentration 90 nM)
- procedure_text: PBM binding z-score (relative to random genomic background probes); higher = stronger binding; sequences stand for … in GC…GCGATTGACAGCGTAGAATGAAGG
observed_property: PBM binding z-score

Examples from the recorded data:
{"columns": ["item_sequence", "PBM binding z-score"],
 "data": [
  ["AGAATGAGGTTATACGAAGATCAGGGAAGAAAGT", 0.807],
  ["ACTCGGAGGACCAAGGTCAGAGCTACGCCAGTGA", -1.19],
  ["ATCTCTCGGTAACAAGTTCAGTGAAAGAGAGGAC", 0.792],
  ["CAAACTAGGTTACGAAAGGTCAAAGTCGAATGAC", 2.53],
  ["ATCTCTAGGTAAAGGTAGTTCAGTGAATGCAAAT", 0.954]
]}

Q: Indicate the recorded PBM binding z-score value for this sequence: TCTTGTAGATCAAGCAGGTTAAAAAAGCCTGAGT
Ans: 0.175

* * *

- System: PPARg DBDmut:RXRa IVT, anti-PPARg (DBD mutation: PPARg1 K132A/R137A, NR concentration 270 nM, RXRa partner concentration 90 nM)
- procedure_text: PBM binding z-score (relative to random genomic background probes); higher = stronger binding; sequences stand for … in GC…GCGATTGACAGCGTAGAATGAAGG
Decision: PBM binding z-score compared against 0.7; not below it gives rule met, below it gives rule not met.

{"columns": ["item_sequence", "category_label"],
 "data": [
  ["ACTTACGGGCCAACGAGGTTATAGCACGCGTATA", "rule not met"],
  ["TAGAGTAGGTTAGTCGGGGCATTCAGCCAACATA", "rule met"],
  ["GATACAGGGTCAGCTAGAGGCAAGAGTATGGAAA", "rule not met"],
  ["CCTTGCAGGCCAGGGTCACTCAAGCATTTCGCTT", "rule not met"]
]}

Q: Confirm if PBM binding z-score reported for the sequence ATACCAAGGTGATTGTGAGGTCGTTGATACTAAC is 0.7 or above.
Ans: rule met

Q: Evaluate ACTAGCAGGCCAAGGGTCACCCAAGATTAGTCCG : PBM binding z-score at minimum 0.7?
Ans: rule met

Q: Please check the record TCTAGCATGCCAGAGGGTCACTCAAGAGGTACGG and state if its PBM binding z-score is at or above 0.7.
Ans: rule not met

Q: Hello, I need to know if CGTCAAAGTTCAACTAAGGTACCGTAAAGCACGC has measured PBM binding z-score not below 0.7. Thanks!
Ans: rule not met

Q: Could you please find out whether ATCTCTAGGTAAGACTCAGTTCAGCGAAGAACGC has PBM binding z-score that meets 0.7 or exceeds it?
Ans: rule not met

* * *

Give PBM binding z-score for every item shown.
- Test system: PPARg:RXRa 30nM:10nM, anti-RXR (NR concentration 30 nM, RXRa partner concentration 10 nM)
- procedure_text: PBM binding z-score (relative to random genomic background probes); higher = stronger binding; sequences stand for … in GC…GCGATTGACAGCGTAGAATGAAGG

The cases that follow already have their PBM binding z-score on record.
{"columns": ["item_sequence", "measured_target", "PBM binding z-score"],
 "data": [
  ["GTACCAATGTGAATAGGTCGTTGATGAGTAGGCG", "PPARg:RXRa 30nM:10nM, anti-RXR (NR concentration 30 nM, RXRa partner concentration 10 nM)", -0.118],
  ["TTACCAAGGTGAAGGACGTTGATCCCTCTGTAGA", "PPARg:RXRa 30nM:10nM, anti-RXR (NR concentration 30 nM, RXRa partner concentration 10 nM)", 0.789],
  ["TCATATAGGTAATACGGGTGAAAGTCGGCATCTA", "PPARg:RXRa 30nM:10nM, anti-RXR (NR concentration 30 nM, RXRa partner concentration 10 nM)", 3.81],
  ["CCTAGTTGGTCAGGAGGTCAAACACCGGATATGA", "PPARg:RXRa 30nM:10nM, anti-RXR (NR concentration 30 nM, RXRa partner concentration 10 nM)", 1.67],
  ["TCATATAGGTAAACCGGTGAAAGTCCGTAAGTTA", "PPARg:RXRa 30nM:10nM, anti-RXR (NR concentration 30 nM, RXRa partner concentration 10 nM)", 3.49],
  ["TCATATAGGTAAATGCAAGGTGAAAGTCCGATCT", "PPARg:RXRa 30nM:10nM, anti-RXR (NR concentration 30 nM, RXRa partner concentration 10 nM)", 4.33]
]}

Respectfully, I request PBM binding z-score for each entry included below.
1. CAAATTAGGTCAAGAGGTCAAAGTCCGCTTCCCG
2. TTACCAAGGTGTAAGGTCGTTGATGCACGCCTTG
3. CGTCGAAGGTCAAAGGTCAGTGAAGAGATGACGG
4. ACAGACAGGTGAGTGACGGTAACTCAGCTGGACG
5. GCAGACAGGTGAAACGCGGGTAACTCAGGGTGGC

Ans:
1: 8.32; 2: 1.99; 3: 7.87; 4: -0.358; 5: -0.712

* * *

- Tested on: VDR homodimer (NR concentration 270 nM)
- procedure_text: PBM binding z-score (relative to random genomic background probes); higher = stronger binding; sequences stand for … in GC…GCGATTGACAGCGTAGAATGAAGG
Could you label it yes (1) if measured PBM binding z-score is 0.8 or higher, and no (0) otherwise?

{"columns": ["item_sequence", "measured_target", "category_label"],
 "data": [
  ["CCTACTGGGCCAAAGGTCATTGAATCCAATGCTC", "VDR homodimer (NR concentration 270 nM)", "yes (1)"],
  ["CCTAGTTGGTTAGGAGGTCACACACCGGATATGA", "VDR homodimer (NR concentration 270 nM)", "yes (1)"],
  ["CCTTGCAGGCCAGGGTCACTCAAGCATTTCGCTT", "VDR homodimer (NR concentration 270 nM)", "yes (1)"]
]}

Q: Tell me whether PBM binding z-score is at least 0.8 here: CCTACTGGGCCATTCAGAGATCATTGATCATATG
Ans: no (0)

Q: Dear colleague, could you confirm whether TCGAGTAGGTTAGTCGGGGGATTCAGCCAACATA has PBM binding z-score at or above 0.8?
Ans: no (0)

Q: Hi team, for CCTTACGGGTGACTCCAGGTTATAGCATCGGAGT , is the recorded PBM binding z-score at or above 0.8?
Ans: no (0)

* * *

For each entry below, report its PBM binding z-score value.
- System: RXRa homodimer (NR concentration 180 nM)
- procedure_text: PBM binding z-score (relative to random genomic background probes); higher = stronger binding; sequences stand for … in GC…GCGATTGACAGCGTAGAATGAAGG
One number for each entry.

Some entries whose results are on file:
{"columns": ["item_sequence", "measured_target", "PBM binding z-score"],
 "data": [
  ["ACTTACGGGTCAACGAGGTTGTAGCACGCGTATA", "RXRa homodimer (NR concentration 180 nM)", 5.59],
  ["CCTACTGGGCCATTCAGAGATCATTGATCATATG", "RXRa homodimer (NR concentration 180 nM)", -0.144]
]}

Give PBM binding z-score for all sequences that follow.
1. CCCGAAAGGTCGTGCTCAGGTGAGTATACCAAAC
2. CCTTACGGGTCACGAGGTTATAGCACGACGAGCG

Ans:
1. 4.95
2. 6.87

Your task in this section: give PBM binding z-score for each listed record.
1. CGTAGCAGGCCAATCTGGGTCACTCAAGGCTTGA
2. TCGAGTAGGTTACCAATGGGGCACTCAGCTTTCT
3. CCGACTGGGGCAAGGTTATCATAACGCACAGCCA

Ans:
1: 0.616; 2: 0.428; 3: 1.12

// each sequence listed below needs its PBM binding z-score
1. GCTCGGAGGGCAAGGTCAGAGCTTTGTCCGTAGA
2. GCGACTGGGCCAAAGCAGGTTACCATAAGGTTGG
3. CAATCTAGGTCAAGAGGTCAAAGTCCGCTTCCCG
4. CATACAGGGTCAGCTAGGCCAGACTAGGGACGGC

Ans:
1: 2.93; 2: -0.0243; 3: 8.19; 4: 3.99
